Reference source for all entries: patent US10208033B2

Test system: corn borers
Assay Text: whole plant or invertebrate
Stated Conditions: read-out: Corn borer Mortality (%)
Reported Metric: mortality at 600 mg/kg (%)
Give the number; % is assumed, so skip it.

Below: 3 compounds and their reported mortality at 600 mg/kg.
// query If you can, please state the reported mortality at 600 mg/kg value of C[C@@H]1N[C@H](C(=O)NCN(C)C)Cc2c1[nH]c1ccccc21 [Ib-19] .
// result 10

// query If you can, please state the reported mortality at 600 mg/kg value of C[C@@H]1N[C@H](C(=O)O)Cc2c1[nH]c1ccccc21 [Ib-1] .
// result 25

// query If you can, please state the reported mortality at 600 mg/kg value of CC1=NCCc2c1[nH]c1ccccc21 [Harmalan] .
// result 15

---
// query If you can, please state the reported mortality at 600 mg/kg value of COc1ccc2c3c([nH]c2c1)C(C)NCC3 (centres unmarked) [Tetrahydroharmine] .
// result 0

// query If you can, please state the reported mortality at 600 mg/kg value of CCCCNC(=O)[C@@H]1Cc2c([nH]c3ccccc23)[C@H](C)N1 [Ib-16] .
// result 50
